The following proteins are shown together with reported Enzyme Activity Endpoint Assay (purified): scIgG values.
- Tested System: pooled human IgG
Please respond with the number in ng/µL and leave the unit unwritten.

PRT-227 (protein) MEVVEVWPYGQNPNGKTEILSQTEDSESLQRLRDIEDFQAEKKMQNVVYTKWLDGVDVKDHDFRKIVDGNIAYYATPLLNGRGFYDINKDFNRDSDKCAAAVAANMFHYWLDINRDNVDRFLRQNPEKHGIIELPDGQLKLSDFLNTYESDHGYRDKSKLFDFISNNFNGPVWTDKLLDNYINGYAYNYKYGRTIEDPTKNTSKINFFKEVFNEKILTNNHSIRNQNEFSVLLSEALYTGKAIGLSYGPAGLRHSLGHIISVWGADLDADGNVVAIYVTDSDDKKLTIGDERVGLKRYKISTDDENRLRLTAYEETHNTGGQIRGLYTLDTGKYAWADYFDKTEQTGTDQAEQLEHHHHHH | 492

Let us move to another entry and its Enzyme Activity Endpoint Assay (purified): scIgG.
# get_value(readout='Enzyme Activity Endpoint Assay (purified): scIgG', item= PRT-156 (protein) MANQEIRYSEVTPYHVTSVWTKGVTPPTDFTQGEDVFHAPYKANQGWYDITKTFNGKDDLLCGAATAGNMLHWWFDQNKDQIKRYLEEHPEKQKINFNGEQMFDVKEAIDTKNHQLDSKLFEYFKEKAFPYLSTKHLGVFPDHVIDMFINGYRLSLTNHGPTPVKEGSKDPRGGIFDAVFTRGDQSKLLTSRHDFKEKNLKEISDLIKKELTEGKALGLSHTYANVRINHVINLWGADFDSNGNLKAIYVTDSDSNASIGMKKYFVGVNSAGKVAISAKEIKEDNIGAQVLGLFTLSTGQDSWNQTN )
0
